- PROCEDURE_TEXT: Mouse liver microsomal stability of compound in microsomal protein, PBS buffer pH 7.4, NADPH, glucose-6-phosphate and glucose-6-phosphate dehydrogenase media. Aliquotes were taken at 5 time points and after stopping the reaction, supernatants were analyzed using HPLC coupled with a tandem mass spectrometer. The elimination constant, half-life, and intrinsic clearance are determined as results using linear regression analysis. The assay has been performed by Enamine biological services, Bienta Ltd.The protocol is publicly available: dx.doi.org/10.17504/protocols.io.5qpvokdb9l4o/v1
- Format: ADME, microsomes, Microsome
- CONDITION_SUMMARY: liver microsomes
Categorize each record by its half-life using zone 1: < 20 min; zone 2: ≥ 20 min and < 100 min; zone 3: ≥ 100 min

COMPOUND: COc1ccc([C@@H](Cc2nnn[nH]2)NC(=O)c2ncnc3[nH]ccc23)cc1
CAT: zone 3
--
COMPOUND: CC(C)[C@H](Nc1ncnc2[nH]ccc12)c1ccc2c(c1)S(=O)(=O)CCC2
CAT: zone 1
--
COMPOUND: Cc1nn(C)cc1-c1cc2c(N[C@@H](c3ccc4c(c3)S(=O)(=O)CCC4)C(C)C)ncnc2[nH]1
CAT: zone 1
--
COMPOUND: COc1ccc([C@H](Cc2nnn[nH]2)NC(=O)c2ncnc3[nH]ccc23)cc1
CAT: zone 3
--
COMPOUND: CC(C)[C@@H](Nc1ncnc2[nH]c(-c3cnn(CC(N)=O)c3)cc12)c1ccc2c(c1)S(=O)(=O)CCC2
CAT: zone 2
--
COMPOUND: CC(C)[C@@H](Nc1ncnc2[nH]c(C(=O)N[C@H]3CCN(C)C3)cc12)c1ccc2c(c1)S(=O)(=O)CCC2
CAT: zone 3
--
COMPOUND: CC(C)[C@H](Nc1ncnc2[nH]c(-c3cnn(CC(N)=O)c3)cc12)c1ccc2c(c1)OCCO2
CAT: zone 3
--
COMPOUND: CC(C)[C@@H](Nc1ncnc2[nH]c(-c3ccc4nnn(C)c4c3)cc12)c1ccc2c(c1)S(=O)(=O)CCC2
CAT: zone 1
--
COMPOUND: CC(C)[C@@H](Nc1ncnc2[nH]cc(C(N)=O)c12)c1ccc2c(c1)OCCO2
CAT: zone 1
--
COMPOUND: O=C(Nc1cccc2c(C(=O)N[C@@H]3c4ccccc4C[C@@H]3C(=O)O)c[nH]c12)NC1CC1
CAT: zone 3
--
COMPOUND: CC(C)[C@H](Nc1ncnc2[nH]c(-c3cnn(C)c3C#N)cc12)c1ccc2c(c1)NC(=O)CO2
CAT: zone 2
--
COMPOUND: Cn1ncc(-c2cc3c(N[C@@H](c4ccc5c(c4)OCCO5)C(C)(C)C)ncnc3[nH]2)c1C#N
CAT: zone 1
--
COMPOUND: CC(C)[C@@H](Nc1ncnc2[nH]c(-c3cnn(CC(=O)N(C)C)c3)cc12)c1ccc2c(c1)OCCO2
CAT: zone 2
--
COMPOUND: CC(C)[C@@H](Nc1ncnc2[nH]c(-c3cnn(CCC(N)=O)c3)cc12)c1ccc2c(c1)OCCO2
CAT: zone 2
--
COMPOUND: CC(C)(C)[C@H](Nc1ncnc2[nH]c(-c3cnn(CC(N)=O)c3)cc12)c1ccc2c(n1)OCCO2
CAT: zone 3
--
COMPOUND: CNC(=O)Cn1cc(-c2cc3c(N[C@H](c4ccc5c(c4)S(=O)(=O)CCC5)C(C)C)ncnc3[nH]2)cn1
CAT: zone 1
--
COMPOUND: CC(C)[C@@H](Nc1ncnc(N)c1Cl)c1ccc2c(c1)S(=O)(=O)CCC2
CAT: zone 1
--
COMPOUND: CC(C)[C@H](CO)Nc1ncnc2[nH]ccc12
CAT: zone 3
--
COMPOUND: COc1ccc([C@@H](CC(=O)O)NC(=O)c2ncnc3[nH]ccc23)cc1
CAT: zone 3
--
COMPOUND: Cc1nn(C)cc1-c1cc2c(N[C@H](c3ccc4c(c3)S(=O)(=O)CCC4)C(C)C)ncnc2[nH]1
CAT: zone 1
--
COMPOUND: COCCNC(=O)c1c[nH]c2ncnc(N[C@@H](c3ccc4c(c3)S(=O)(=O)CCC4)C(C)C)c12
CAT: zone 1
--
COMPOUND: CNC(=O)c1cc2c(N[C@@H](c3ccc4c(c3)OCCO4)C(C)C)ncnc2[nH]1
CAT: zone 2
--
COMPOUND: C[C@H](C(=O)O)[C@@H](NC(=O)c1ncnc2[nH]ccc12)c1ccc(Br)cc1
CAT: zone 3
--
COMPOUND: CNC(=O)c1cccc(-c2cc3c(N[C@@H](c4ccc5c(c4)S(=O)(=O)CCC5)C(C)C)ncnc3[nH]2)c1
CAT: zone 1
--
COMPOUND: CC(C)[C@H](Nc1ncnc2[nH]c(-c3cnn(CC(N)=O)c3)cc12)c1ccc2c(c1)S(=O)(=O)CCC2
CAT: zone 2
--
COMPOUND: CNCc1cc(-c2cc3c(N[C@@H](c4ccc5c(c4)S(=O)(=O)CCC5)C(C)C)ncnc3[nH]2)co1
CAT: zone 2
--
COMPOUND: CC(C)[C@H](Nc1ncnc2[nH]c(-c3cnn(C)c3C#N)cc12)c1ccc2c(n1)OCCO2
CAT: zone 2
--
COMPOUND: COc1ccc([C@@H](NC(=O)c2[nH]cnc3nccc2-3)C(C)c2nnn[nH]2)cc1 (stereo not given in full)
CAT: zone 3
--
COMPOUND: CNCc1cc(-c2cc3c(N[C@@H](c4ccc5c(c4)S(=O)(=O)NCC5)C(C)C)ncnc3[nH]2)co1
CAT: zone 2
--
COMPOUND: CC(C)[C@@H](Nc1ncnc2[nH]c(-c3cnn(C)c3C#N)cc12)c1ccc2c(c1)OCCO2
CAT: zone 1
--
COMPOUND: CC(C)[C@@H](Nc1ncnc2[nH]c(-c3cnn(C)c3)cc12)c1ccc2c(c1)S(=O)(=O)NCC2
CAT: zone 1
--
COMPOUND: CC(C)[C@H](Nc1ncnc2[nH]c(C(=O)N[C@@H]3CCN(C)C3)cc12)c1ccc2c(c1)S(=O)(=O)CCC2
CAT: zone 3
--
COMPOUND: CCNC(=O)c1cc2c(N[C@@H](c3ccc4c(c3)S(=O)(=O)NCC4)C(C)C)ncnc2[nH]1
CAT: zone 2
--
COMPOUND: CC(C)[C@@H](Nc1ncnc2[nH]c(-c3cnn(CC(N)=O)c3)cc12)c1ccc2c(n1)OCCO2
CAT: zone 3
